All values here come from paper PMC4552634.

# Tested on: P. falciparum stage V gametocytes
# Design: BacTiter-Glo ATP luminescence viability of purified stage V gametocytes in 384-well plates, per cent inhibition versus DMSO
# Measurement setup: 48 h, 5 µM; inhibitor
Out of some 13,000 compounds screened, about 3,200 (25%) showed an effect of 50% or more. This is one part of the list.
Quantity: % Inhibition (%)

compound=Cc1cc(NCCC(=O)Nc2ccccc2)nc(NCC2CCCCC2)n1 quantitative_readout=-30.27
compound="O=C(c1ccc(Cl)cc1)C1CCCN(C2CCN(CCc3ccccc3)CC2)C1 (centres unmarked)" quantitative_readout=-36.02
compound=CN1CCN(Cc2ccc(-c3cc4nccc(Nc5ccc(Oc6ccccc6)cc5)c4cc3Cl)o2)CC1 quantitative_readout=37.01
compound=CC(C)COc1ccc(Cl)cc1Cc1ccc(-c2nc3ccc(Cl)cc3[nH]2)o1 quantitative_readout=-3.56
compound=CC(C)COc1ccc(Cl)cc1Cc1ccc(-c2nc3ccc(N4CCN(C)CC4)cc3[nH]2)o1 quantitative_readout=31.86
compound=c1ccc(Oc2ccc(Nc3ccnc4cc(-c5ccc(CN6CCOCC6)o5)ccc34)cc2)nc1 quantitative_readout=11.61
compound=COc1nc2c(CCN3CC[C@H](NCc4cc(C#N)c5c(c4)CCO5)[C@H](O)C3)ccnc2cc1F quantitative_readout=-20.52
compound=O=S(=O)(Nc1ccc2nccc(N3CCNCC3)c2c1)c1ccc2oc3ccccc3c2c1 quantitative_readout=-1.818
compound=Cc1ccc(O)cc1Nc1ccnc2ccc(-c3csc(CNCCN4CCOCC4)n3)cc12 quantitative_readout=24.32
compound=CC(C)COc1ccc(Cl)cc1Cc1ccc(-c2nc3ccc(CCN4CCCC4)cc3[nH]2)o1 quantitative_readout=21.95
compound=CC(C)COc1ccc(Cl)cc1Cc1ccc(-c2nc3ccc(Br)cc3[nH]2)o1 quantitative_readout=53.1
compound="CCC(C)CNC(=O)CN1CN(c2ccccc2)C2(CCN(C(=O)c3ccc(Br)cc3)CC2)C1=O (centres unmarked)" quantitative_readout=-9.167
compound=CCNCc1ccc(-c2cc3ncnc(Nc4ccc(OCc5cccc(F)c5)c(Cl)c4)c3s2)[nH]1 quantitative_readout=-36.05
compound=c1ccc(Oc2ccc(Nc3ccnc4cc(-c5ccc(CN6CCNCC6)o5)ccc34)cc2)nc1 quantitative_readout=97.92
